Data credit: patent US20230339900A1

experimental_system: human CSNK1D tagged with nanoluciferase (Homo sapiens (Human))
Sequence (P48730 whole entry): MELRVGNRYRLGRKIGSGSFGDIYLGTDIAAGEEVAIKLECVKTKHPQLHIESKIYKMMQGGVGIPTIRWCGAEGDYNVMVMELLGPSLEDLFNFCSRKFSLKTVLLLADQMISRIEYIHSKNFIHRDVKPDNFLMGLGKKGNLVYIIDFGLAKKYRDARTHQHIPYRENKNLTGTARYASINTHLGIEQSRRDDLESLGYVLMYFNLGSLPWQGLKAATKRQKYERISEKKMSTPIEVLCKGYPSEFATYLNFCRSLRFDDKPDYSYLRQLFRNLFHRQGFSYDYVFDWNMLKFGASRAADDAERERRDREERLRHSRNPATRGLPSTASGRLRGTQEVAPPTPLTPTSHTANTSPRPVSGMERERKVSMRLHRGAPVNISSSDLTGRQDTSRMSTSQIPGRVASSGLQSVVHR
test_method_notes: Whole Cell nBRET CSNK1D Binding Assay
particulars: living CHO cells stably expressing human CSNK1D-nanoluciferase; NanoBret tracer 130 nM; 2 hours 37° C.; read-out: CSNK1D BRET IC50
pIC50: −log10 of the molar value.
quantity_measured: pIC50

[[record]]
compound = "CC(C)n1cc(-c2ccnc3[nH]ncc23)c(-c2ccc(F)cn2)n1 [Example 59]"
measured_result = 6.49


[A] Cn1cc(-c2c(C(F)(F)F)cnc3[nH]ccc23)c(-c2ccc(F)cn2)n1 [Example 87]
[B] COc1nc(-c2nn(C)cc2-c2cc(C)nc3[nH]ncc23)ccc1Cl [Example 42]
[C] CC(=O)Nc1cc(-c2cn(C)nc2-c2ccc(F)cn2)ccn1 [Example 115]
[D] Cn1cc(-c2ccnc3c2CC(=O)N3)c(-c2ccc(F)cn2)n1 [Example 3]
Returns the items ordered by pIC50, from maximum to minimum. Answer by listing the labels in the order asked for.
A, C, D, B

====

experimental_system: UniProtKB P48730
test_method_notes: Whole Cell nBRET CSNK1D Binding Assay
particulars: living CHO cells stably expressing human CSNK1D-nanoluciferase; NanoBret tracer 130 nM; 2 hours 37° C.; read-out: CSNK1D BRET IC50
Description: This cellular binding assay uses a bioluminescence resonance energy transfer to measure human CSNK1D binding activity in living Chinese Hamster Ovary (CHO) cells that are stably expressing human CSNK1D tagged with nanoluciferase. The cells were grown to confluency in growth media (DMEM:F12, 50 u/mLPen/Strep, […] glutamine, and 0.6 mg/mL G418) in 10 cm^2 dishes. […] Donor (450 nm) and acceptor (630 nm) emissions are then measured within 10 minutes using a ClarioStar plate reader. […]
quantity_measured: IC50 (µM)

Please review the entries below; each comes with its answer.
[[record]]
molecule = "Cn1cc(-c2ccnc3[nH]ccc23)c(-c2ccncn2)n1 [Example 44]"
measured_result = 0.469

[[record]]
molecule = "Cn1cc(-c2ccnc3[nH]ccc23)c(-c2nccs2)n1 [Example 16]"
measured_result = 0.319

[[record]]
molecule = "Cn1cc(-c2ccnc3[nH]cc(F)c23)c(-c2ccc(F)cn2)n1 [Example 77]"
measured_result = 0.053

[[record]]
molecule = "Cn1cc(-c2ccnc3ccsc23)c(-c2ccc(F)cn2)n1 [Example 118]"
measured_result = 0.376

[[record]]
molecule = "Cc1c(-c2ccnc3[nH]ccc23)c(-c2ccc(F)cn2)nn1C [Example 51]"
measured_result = 0.028


[1] Cn1cc(-c2ccnc3[nH]ncc23)c(-c2ccc(Cl)cn2)n1 [Example 25]
[2] Cn1cc(-c2ccnc3ccc(F)nc23)c(-c2ccc(F)cn2)n1 [Example 127]
Recorded IC50 values differ for 1 and 2 ; which one is higher? Which one? Tell me its label.
2
(2: 0.962 µM, 1: 0.306 µM)

[1] COc1cnc2c(-c3cn(C)nc3-c3ccc(F)cn3)ccnc2c1 [Example 155]
[2] COc1ncc(-c2nn(C)cc2-c2cc(C)nc3[nH]ncc23)cc1C [Example 141]
[3] Cn1cc(-c2cc(C3CC3)nc3[nH]ncc23)c(-c2ccc(F)cn2)n1 [Example 101]
[4] Cn1cc(-c2ccnc3cc(OC(F)(F)F)ccc23)c(-c2ccc(F)cn2)n1 [Example 109]
[5] Cc1ccc(-c2nn(C)cc2-c2ccnc3[nH]ccc23)nc1 [Example 31]
Returns the items ordered by IC50, from maximum to minimum. Answer by listing the labels in the order asked for.
5, 2, 3, 4, 1
